Molecular target: KRAS G12C (Homo sapiens, UniProt P01116, G12C)
Sequence (P01116 1-188 isoform P01116-2 G12C): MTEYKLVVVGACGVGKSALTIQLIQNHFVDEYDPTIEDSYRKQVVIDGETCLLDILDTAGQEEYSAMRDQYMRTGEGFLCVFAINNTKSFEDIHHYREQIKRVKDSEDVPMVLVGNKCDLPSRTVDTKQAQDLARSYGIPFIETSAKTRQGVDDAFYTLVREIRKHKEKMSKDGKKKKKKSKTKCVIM
Assay: GDP-GTP exchange assay (KRAS_G12C exchange)
Conditions: bodipy-GDP loaded KRAS G12C 2.5 nM, SOS1 150 nM, GppNHp; 2 hours pre-incubation, 2 hours reaction; read-out: G12C_exchange
Protocol: Example A. GDP-GTP Exchange Assay The inhibitor potency of the exemplified compounds was determined in a fluorescence based guanine nucleotide exchange assay, which measures the exchange of bodipy-GDP (fluorescently labeled GDP) for GppNHp (Non-hydrolyzable GTP analog) to generate the active state of KRAS in the presence of SOS1 (guanine nucleotide exchange factor). Inhibitors were serially diluted in DMSO and a volume of 0.1 μL was transferred to the wells of a black low volume 384-well plate. […]
pIC50: −log10 of the molar value.
outcome.measure: pIC50

Examples with answers:
{"molecule": "Cc1cccc(-c2c(C)cc3c(nc(OC[C@@H]4CCCN4C)c4nnn([C@H]5CCN(C(=O)/C=C/CF)[C@H](CC#N)C5)c43)c2F)c1C", "pIC50": "≥ 7.00"}
{"molecule": "C=CC(=O)N1CC[C@H](n2cnc3c(N4CC(C)(N(C)C)C4)nc4c(F)c(-c5ccc(F)cc5)c(Cl)cc4c32)C[C@H]1CC#N", "pIC50": "≥ 7.00"}
{"molecule": "C=CC(=O)N1CCC(n2nnc3c(N4CC(C)(N(C)C)C4)nc4c(F)c(-c5cccc6cccc(Cl)c56)c(Cl)cc4c32)C[C@H]1CC#N (single isomer, unassigned) [Example 216a]", "pIC50": "≥ 7.00"}

Enter measured pIC50, system KRAS G12C (Homo sapiens, UniProt P01116, G12C), for the molecule shown: C=CC(=O)N1CC(n2c(=O)n(C[C@@H]3CCCN3C)c3c(=O)n(-c4c(C)ccnc4C(C)C)c4nc(-c5cc(O)cc6ccccc56)c(F)cc4c32)C1
6.00 to 7.00

Answer with pIC50 of C=CC(=O)N1CC[C@H](n2cnc3c(N4CC(N(C)C)C4)nc4c(F)c(-c5ccnc6ccccc56)c(Cl)cc4c32)C[C@H]1CC#N (single isomer, unassigned) [Example 74a] measured for KRAS G12C (Homo sapiens, UniProt P01116, G12C).
≥ 7.00

###

Target: KRAS G12C (Homo sapiens, UniProt P01116, G12C)
Experiment: GDP-GTP exchange assay (KRAS_G12C exchange)
Settings: bodipy-GDP loaded KRAS G12C 2.5 nM, SOS1 150 nM, GppNHp; 2 hours pre-incubation, 2 hours reaction; read-out: G12C_exchange
// IC50 lookup, one value per entry

Example cases with answers are listed next.
{"compound": "C=CC(=O)N1CCC(n2cnc3c(OC[C@@H]4CCCN4C)nc4c(F)c(-c5cc(O)cc6ccccc56)c(Cl)cc4c32)CC1CC#N (single isomer, unassigned) [Example 36a]", "study.system": "KRAS G12C (Homo sapiens, UniProt P01116, G12C)", "endpoint.value": "≤ 100 nM"}
{"compound": "C=CC(=O)N1CC[C@H](n2nnc3c(N4CC(N(C)C)C4)nc4c(Cl)c(-c5cccc(C)c5Cl)c(Cl)cc4c32)C[C@H]1CC#N [Example 282]", "study.system": "KRAS G12C (Homo sapiens, UniProt P01116, G12C)", "endpoint.value": "≤ 100 nM"}

Attention now turns to another entry.
Return IC50 for the following compound: C=CC(=O)N1CC[C@H](n2nnc3c(O[C@@H](C)CN(C)C)nc4c(F)c(-c5ccc(F)cc5)c(C)cc4c32)C[C@H]1CC#N [Example 132]
≤ 100 nM

Ref: patent US20210269434A1
